// data source = PubChem BioAssay (NCI)

Test system: HOP-62 NSCLC
Experiment: NCI-60 one-dose screen, 48 h (100 = growth as untreated, 0 = no growth, -100 = all killed)
Conditions: 10 µM unless noted
Description: Growth inhibition of the HOP-62 human Non-Small Cell Lung tumor cell line is measured as a screen for anti-cancer activity. Cells are grown in 96 well plates and exposed to the test compound for 48 hours. Compounds are tested at a single concentration, which is 10^-5 M for most compounds. The reported endpoint is percent growth (GI% or GIPRCNT), where numbers from 0 - 100% represent growth inhibition, and numbers from -100% - 0 represent cell death. […]
This is part of a sample that, as a whole, favours compounds with a hit. Of some 83,000 tested, about 20% had one in any assay.
Label satisfied when growth >= 60%; otherwise not satisfied.

Compound: COc1ccc(-c2ccc(=O)oc2C#Cc2cc(OC)c(OC)c(OC)c2)cc1O
Label class: not satisfied
//
Compound: Oc1c(CN2CCCC2)cc(COCc2ccccc2)c2cccnc12
Label class: not satisfied
//
Compound: Cc1nc2sc(C(=O)Nc3ccc(Cl)cc3)c(N)c2cc1C(O)c1ccccc1 (stereo not given)
Label class: not satisfied
//
Compound: CN1CCN(Cc2cc(NC(=O)c3cccc(C#Cc4cccc5[nH]nc(N)c45)c3)cc(C(F)(F)F)c2)CC1
Label class: not satisfied
//
Compound: OC(c1ccccc1)(c1ccccc1)c1ccccc1-c1ccccc1
Label class: satisfied
//
Compound: C(/C=C/c1ccccc1)=Nc1ccc(CCc2ccc(N=C/C=C/c3ccccc3)cc2)cc1
Label class: satisfied
//
Compound: O[C@@H](c1cc(C(F)(F)F)nc2c(C(F)(F)F)cccc12)[C@H]1CCCCN1
Label class: not satisfied
//
Compound: Nc1ccc([N+](=O)[O-])cc1N=C/C=C/c1ccccc1
Label class: satisfied
//
Compound: CCOC(=O)c1cn2ncnc(Oc3ccc(NC(=O)NC4CC4)c(F)c3)c2c1C
Label class: satisfied

---

tested on: OVCAR-4 ovarian; assay: NCI-60 one-dose screen, 48 h; settings: 10 µM unless noted
About 83,000 compounds went through this panel and 20% of them were active in at least one assay; those are over-represented in the sample as a whole. Calls of active or inactive are those of the source. How the source made its calls: active means growth percent below 10; inactive means the rest.
Classes used: active, inactive

Compound: O=C(CSc1nnc2sc(Nc3cccc(Cl)c3)nn12)c1ccc(F)cc1
Label class: inactive
--
Compound: O=C1NC(=C(Cl)Cl)/C(=N/S(=O)(=O)N2CCCCC2)N1
Label class: inactive
--
Compound: N#Cc1c(NC(=O)c2cccs2)[n+]([O-])c2ccc(Cl)cc2[n+]1[O-]
Label class: inactive
--
Compound: COC(=O)c1c2c(n3ccc(C)cc13)C(=O)c1ccccc1C2=O
Label class: inactive
--
Compound: Cc1ccc(C)c(-n2c(-c3ccc(Br)cc3)csc2=NC(=O)c2ccccc2F)c1
Label class: inactive
--
Compound: C=CCCC(=O)N1C=CC(=O)[C@H](O)[C@@H]1/C=C/c1ccccc1
Label class: inactive
--
Compound: O=C(Cn1nnc2ccccc21)Nc1ccc(-c2nc3ccccc3s2)cc1
Label class: inactive
--
Compound: CN1CCN(Cc2ccc(NC(=O)c3cncc(C#Cc4cncc5[nH]ncc45)c3)cc2C(F)(F)F)CC1
Label class: inactive
--
Compound: CCC/C(=N\NC(N)=O)C(OC)OC
Label class: inactive
--
Compound: Nc1ccc([N+](=O)[O-])cc1N=C/C=C/c1ccccc1
Label class: inactive
--
Compound: Cc1[nH]c(/C=C/C(=O)c2ccc(C(F)(F)F)c(F)c2)c(C)c1C(=O)NCC(C)C
Label class: inactive
--
Compound: CCOC(=O)CSc1nc2sc3c(c2c(=O)n1-c1ccc([N+](=O)[O-])cc1)CCCCC3
Label class: inactive
--
Compound: O=C(O)CCCn1c(SCc2c(Cl)cccc2Cl)nc2ccsc2c1=O
Label class: inactive
--
Compound: CCCCCCCC/C=C\CCCCCCCCOc1ccccc1CC(=O)NCC[N+]1(C)CCCCC1
Label class: inactive
--
Compound: O=C1NC(=O)c2c1c1c3ccccc3[nH]c1c1oc3cc(Br)ccc3c21
Label class: inactive
--
Compound: COC(=O)C1=Nc2ccc(F)cc2/C1=C\c1sc(Nc2ccc(O)cc2)nc1O
Label class: inactive
--
Compound: C[C@@H](CO)[C@@H]1CC[C@]2(C(=O)N3CCN(C)CC3)CC[C@]3(C)[C@H](CC[C@@H]4[C@@]5(C)CC[C@H](O)C(C)(C)[C@@H]5CC[C@]43C)[C@@H]12
Label class: inactive
--
Compound: COc1ccc(Cc2nnc(Nc3nc4ccccc4s3)s2)cc1
Label class: inactive
--
Compound: CC(=O)c1cc(-c2ccccc2N)n(-c2ccc3c(c2)OCO3)c1C
Label class: inactive
--
Compound: CN(CCC#N)c1ccc(/C=C2\NC(=O)NC2=O)cc1
Label class: inactive
--
Compound: Fc1ccc(COc2ccc(Nc3ncnc4sc5c(c34)CCCC5)cc2)cc1
Label class: inactive
--
Compound: O=C1NC(=Nc2ccc(O)cc2)S/C1=C\c1cccs1
Label class: inactive
--
Compound: CN1CCN(Cc2ccc(NC(=O)c3cncc(C#Cc4cnn5ccccc45)c3)cc2C(F)(F)F)CC1
Label class: active
--
Compound: Cc1nc2sc(C(=O)Nc3ccc(Cl)cc3)c(N)c2cc1C(O)c1ccccc1 (stereo not drawn)
Label class: inactive
--
Compound: COc1ccc(Cn2cc(C(=O)N=Nc3c(O)[nH]c4c(Cl)cccc34)nn2)cc1
Label class: inactive
--
Compound: Cc1ncc(C(=O)Nc2ccc(CN3CCN(C)CC3)c(C(F)(F)F)c2)cc1C#Cc1cnc(N)c2ccncc12
Label class: active
--
Compound: Cn1c(/C=C/[N+](=O)[O-])cc2ccccc21
Label class: inactive
--
Compound: COP(=O)(OC)c1nnn(-c2cccc([N+](=O)[O-])c2)c1C
Label class: inactive
--
Compound: COc1ccc(-c2cn(-c3ccc(Cl)cc3)c(SCC(=O)c3ccc([N+](=O)[O-])cc3)n2)cc1
Label class: inactive
--
Compound: COc1ccc(-c2cc(C(=O)N3N=C(c4ccc(N)cc4)CC3c3ccccc3)c3ccccc3n2)cc1 (stereo not drawn)
Label class: inactive
--
Compound: CCCCCCC(=O)Nc1ncc(Cc2ccc(C)cc2)s1
Label class: inactive
--
Compound: COC(=O)C1=C(C)NC(C)=C(C(=O)OCC(C)C)C1c1ccccc1[N+](=O)[O-] (stereo not drawn)
Label class: inactive
--
Compound: CCNc1nc(-c2ccc(F)cc2)c(C#N)c(=O)n1C
Label class: inactive
--
Compound: CC(O)c1ncc(/C=C2\SC(=S)N(Cc3ccccc3)C2=O)s1 (stereo not drawn)
Label class: inactive
--
Compound: CCN(CC)c1ccc(N2C(=O)/C(=C/c3cccs3)SC2=S)cc1
Label class: inactive
--
Compound: O=C(Nc1ccc(F)cc1)Nc1ccccc1CNc1nc(Nc2ccc(OCCN3CCCC3)cc2)ncc1Cl
Label class: active
--
Compound: O=C(N/N=C/c1ccc(O)cc1O)c1ccc(Nc2ccnc(C(F)(F)F)c2)cc1
Label class: inactive
--
Compound: CO[C@H](C(=O)[C@@H](O)[C@@H](C)O)[C@@H]1Cc2cc3cc(O[C@H]4C[C@@H](O[C@H]5C[C@@H](O)[C@H](O)C(C)O5)[C@H](O)C(C)O4)c(C)c(O)c3c(O)c2C(=O)[C@H]1O[C@H]1C[C@@H](O[C@H]2C[C@@H](O[C@H]3C[C@@H](OC)[C@H](O)C(C)O3)[C@@H](O)C(C)O2)C(O)(O)C(C)O1 (stereo partly drawn)
Label class: inactive

---

system: SF-539 CNS; test: NCI-60 one-dose screen, 48 h (100 = growth as untreated, 0 = no growth, -100 = all killed); details: 10 µM unless noted
Compounds without any hit were thinned out: in the full panel of roughly 83,000, 20% have a hit.
We use 90% as the dividing line for growth: on or above the line is label 1, below is label 0.

Compound: CCCCC(=O)Nc1ncc(Cc2ccccc2Cl)s1
Experimental system: SF-539 CNS
Label class: label 0
--
Compound: CN1C(=O)/C(=C/c2ccc(C(=O)Nc3ncc(Cc4ccc(F)cc4)s3)cc2)SC1=S
Experimental system: SF-539 CNS
Label class: label 0
--
Compound: Cc1c2ccccc2nc2c1ccc1cccnc12
Experimental system: SF-539 CNS
Label class: label 1
--
Compound: CC1(C)C2CC=C(/C=N/NC(=O)C3CCC(=O)N3)C1C2 (stereo unspecified)
Experimental system: SF-539 CNS
Label class: label 1
--
Compound: O=C(CSc1nc2ccc([N+](=O)[O-])cc2[nH]1)Nc1cccc([N+](=O)[O-])c1
Experimental system: SF-539 CNS
Label class: label 0
--
Compound: O=C1Nc2ccccc2C2c3cccn3-c3ccccc3N12 (stereo unspecified)
Experimental system: SF-539 CNS
Label class: label 0
--
Compound: N#Cc1c(Nc2ccc(F)cc2)n[nH]c1-c1cccs1
Experimental system: SF-539 CNS
Label class: label 1
--
Compound: C=CCN=C(N)SCCCCCCSC(N)=NCC=C
Experimental system: SF-539 CNS
Label class: label 1
--
Compound: O=C(O)c1cccc(N/C=C/C(=O)c2cc3cc(Br)ccc3oc2=O)c1
Experimental system: SF-539 CNS
Label class: label 1
